system: proTGFβ1 presented by endogenous LTBP1/3 in LN229 cells; assay: Endogenous LTBP caga assay: LN229 cells transfected with human proTGFβ1 only, CAGA12 luciferase reporter cells; assay type: cell-based; conditions: Table 20: protocol of Example 10 with Fabs (RefAb also as hIgG4), assay format not stated
Sequence (P01137 30-390): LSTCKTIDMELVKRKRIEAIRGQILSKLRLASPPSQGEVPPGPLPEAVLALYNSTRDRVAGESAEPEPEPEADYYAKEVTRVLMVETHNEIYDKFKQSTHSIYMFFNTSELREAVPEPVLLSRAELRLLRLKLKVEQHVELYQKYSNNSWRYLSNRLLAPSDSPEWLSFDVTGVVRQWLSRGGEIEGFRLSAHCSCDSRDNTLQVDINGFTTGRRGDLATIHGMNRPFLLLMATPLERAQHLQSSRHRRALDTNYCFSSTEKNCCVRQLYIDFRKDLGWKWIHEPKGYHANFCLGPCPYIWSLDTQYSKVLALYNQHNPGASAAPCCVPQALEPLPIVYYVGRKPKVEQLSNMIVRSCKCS
experimental readout: pIC50
Please express pIC50 as -log10 of the molar concentration.

GET /value?item= SR-AB58 Fab (antibody, V domains shown) VH: QVQLVESGGGVVQPGRSLRLSCAASGFTFRSYVMHWVRQAPGKGLEWVAVISHEGSGKYYADSVKGRFTISRDNSKNTLYLQMNSLRAEDTAVYYCALPRIAARRGGFGTWGQGTLVTVSS VL: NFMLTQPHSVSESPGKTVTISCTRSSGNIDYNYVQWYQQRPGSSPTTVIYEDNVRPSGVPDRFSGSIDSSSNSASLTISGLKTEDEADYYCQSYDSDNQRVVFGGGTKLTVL &field=pIC50 returns 8.31

// sample SR-AB53 Fab (antibody, V domains shown) VH: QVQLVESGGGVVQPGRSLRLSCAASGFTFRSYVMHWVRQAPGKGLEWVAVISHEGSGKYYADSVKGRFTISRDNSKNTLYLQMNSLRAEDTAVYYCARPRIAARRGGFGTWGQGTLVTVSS VL: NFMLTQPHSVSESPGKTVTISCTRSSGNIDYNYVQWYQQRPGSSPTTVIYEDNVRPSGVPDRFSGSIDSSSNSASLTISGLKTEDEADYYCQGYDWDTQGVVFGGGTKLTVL , its pIC50 was 8.93

The measured pIC50 associated with SR-AB59 Fab (antibody, V domains shown) VH: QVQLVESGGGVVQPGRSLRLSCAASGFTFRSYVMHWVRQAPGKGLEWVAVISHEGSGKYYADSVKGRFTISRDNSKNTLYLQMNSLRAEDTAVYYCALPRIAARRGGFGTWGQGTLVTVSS VL: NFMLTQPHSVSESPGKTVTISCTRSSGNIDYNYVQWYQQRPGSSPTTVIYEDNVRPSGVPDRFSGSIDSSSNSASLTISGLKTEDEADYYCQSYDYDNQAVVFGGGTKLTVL reads 9.71

Just for reference, patent US11214614B2 is where these values come from.
